test system: Wolbachia pipientis; assay: Anti-Wolbachia Cell-Based Screen; format: functional; design: scale not given: in the data most compounds retested in dose-response had high values; conditions: 5 µM
Out of some 48,000 compounds screened, about 13,000 (27%) showed an effect of 50% or more. The list shows a part of the results.
Percent Effect values, listed per item
Record the value in %, omitting the unit from your answer.

> print(dat)
                                   compound      observable  value.observed
1  COCC(C)(O)CNC(=O)Nc1cccc(OC)c1OC (centres undefined)  Percent Effect           4.697
2           CCCNc1nc(CS(=O)(=O)c2ccccc2)cs1  Percent Effect          -6.524
3  CNc1cncc(C2CCCN2C(=O)CCn2ccnc2)n1 (centres undefined)  Percent Effect           78.35
4  CCc1nc(C2CCCN2C(=O)c2cc(C3CC3)[nH]n2)no1 (centres undefined)  Percent Effect          -2.923
5  CCc1ccc(C2CC(=O)Nc3n[nH]cc32)o1 (centres undefined)  Percent Effect           13.18

// query Entry CCN(CCNCc1ccc(C#N)cc1)C1CC1 has what Percent Effect?
// result -16.49

// query Entry CN(Cc1ccc(C2CC(=O)Nc3n[nH]cc32)o1)S(C)(=O)=O (centres undefined) has what Percent Effect?
// result 5.804

// query Entry O=C(NCCCn1ccnc1)N1CCCC1c1ccncc1 (centres undefined) has what Percent Effect?
// result 0.09304

// query Entry CCc1ccc(C(=O)NCCCC2(C3OCCO3)CCOCC2)cc1 has what Percent Effect?
// result -33.3

---

tested on: Wolbachia pipientis; experiment: Anti-Wolbachia Cell-Based Screen; format: functional; set-up: scale not given: in the data most compounds retested in dose-response had high values; conditions: 5 µM
Among all 48,000 compounds or so, about 13,000 (27%) showed an effect of 50% or more. This is one part of the list.
Percent Effect values, listed per item
Record the value in %, omitting the unit from your answer.

> print(dat)
                                   compound  value.observed
1  COc1ccc(CCNC(=O)NC2CC(=O)N(c3ccccc3)C2)cc1 (stereo not given)           13.52
2  Cc1ccccc1CN1CCCN(C2CCOC2=O)CC1 (stereo not given)           1.458
3  O=C1CC(NS(=O)(=O)N2CCOCC2)CN1CCc1ccccc1 (stereo not given)           3.785
4  COCCN1C(=O)CC[C@]12CC[C@@H](NCc1nccs1)CC2.O=C(O)C(F)(F)F          -1.329
5               Cc1cc(NCCO)nc(N2CCCC2)c1C#N          -1.529

// query Entry CCn1cnnc1CCNC(=O)c1ccc(Br)cc1F has what Percent Effect?
// result -14.54

// query Entry Cc1ccccc1C(NC(=O)Cn1cc(C2CC2)nn1)C1CC1 (stereo not given) has what Percent Effect?
// result 6.908

// query Entry CC[C@@H]1N(Cc2nccs2)CCC[C@]12CCC(=O)N2C.O=C(O)C(F)(F)F has what Percent Effect?
// result 109.2

// query Entry O[C@@H]1C[C@@H](c2nc(-c3ccccc3)no2)N(C2CCOCC2)C1 has what Percent Effect?
// result -15.45

// query Entry CCn1cnnc1CCNC(=O)C(C)(C)c1cccc(Cl)c1 has what Percent Effect?
// result -6.534

---

tested on: Wolbachia pipientis; assay: Anti-Wolbachia Cell-Based Screen; assay type: functional; design: scale not given: in the data most compounds retested in dose-response had high values; settings: 5 µM
Screen size: about 48,000 compounds; about 13,000 (27%) showed an effect of 50% or more. The list shows a part of the results.
Percent Effect values, listed per item
Record the value in %, omitting the unit from your answer.

Recorded results for 10 compounds are shown here.
> print(dat)
                                    compound  value.observed
 1  Cc1ccc(S(=O)(=O)N2CCN(C)C3(CCC(=O)N(C)CC3)C2)s1 (stereo not given)           14.37
 2  CC1CN(C)CCN1C(=O)c1cnc2onc(CC(C)(C)C)c2c1 (stereo not given)           4.024
 3      Cn1ccnc1CN1CCCN(C(=O)c2ccc(O)nc2)CC1            99.8
 4  CCn1c(N)nc2cc(C(=O)N3CCC(N4CCCC4)CC3)cnc21          -1.571
 5  Oc1nc(N2CCOCC2)nc2c1CCN(Cc1cccc(F)c1)CC2             117
 6  Cc1ccc(C(=O)N2CCN(C)C3(CCC(=O)N(C)CC3)C2)c(F)c1 (stereo not given)           104.4
 7    CS(=O)(=O)NC(=O)c1cnc2c(cnn2C2CCCC2)c1          -4.215
 8  C=C(C)COc1ccc(C(=O)NCCn2c(C)cc(C)nc2=O)cc1           3.763
 9                O=C1CCc2ccccc2N1CCCn1cnnn1          -8.538
10  CSc1ccccc1C(=O)N1CCN(C)C2(CCC(=O)N(C)CC2)C1 (stereo not given)             119

// query Entry CCN1CCN(C(=O)c2cnc3c(cnn3C3CCCC3)c2)CC1 has what Percent Effect?
// result 83.11

// query Entry Cc1ccc(C)c(S(=O)(=O)N2CCN(C)C3(CCC(=O)N(C)CC3)C2)c1 (stereo not given) has what Percent Effect?
// result -7.559

// query Entry O=C(O)c1cnc2c(cnn2C2CCCC2)c1 has what Percent Effect?
// result -9.214

// query Entry CCn1ccnc1CN1CCCN(C(=O)c2ccc(C#N)cc2)CC1 has what Percent Effect?
// result -7.951

---

tested on: Wolbachia pipientis; test: Anti-Wolbachia Cell-Based Screen; format: functional; parameters: scale not given: in the data most compounds retested in dose-response had high values; conditions: 5 µM
The campaign covered roughly 48,000 compounds. About 13,000 (27%) showed an effect of 50% or more. Some of the results follow.
observable: Percent Effect (%)
Record the value in %, omitting the unit from your answer.

// query Entry Cc1cccc(NC(=O)N2CCC3(CC(=O)N(c4ccsc4)C3)C2)c1 (stereo not drawn) has what Percent Effect?
// result 111.9

---

Percent Effect values, listed per item
tested on: Wolbachia pipientis; test: Anti-Wolbachia Cell-Based Screen; assay type: functional; design: scale not given: in the data most compounds retested in dose-response had high values; details: 5 µM
Among all 48,000 compounds or so, about 13,000 (27%) showed an effect of 50% or more. The list shows a part of the results.
Record the value in %, omitting the unit from your answer.

> print(dat)
                                   compound  value.observed
1  Cn1ccc(C(=O)NC2CCC23CCN(Cc2cnn(C)c2)CC3)c1.O=C(O)C(F)(F)F (stereo not drawn)           118.5
2  COC(=O)C1CN(CC(=O)Nc2cc(F)ccc2F)c2ccccc21 (stereo not drawn)           6.543
3  Cc1nc(CN2CCOC(c3ccc(Cl)cc3)C2)oc1C (stereo not drawn)          -15.43

// query Please provide the recorded Percent Effect for COCc1ncn2c1CN(C(=O)Nc1cccc(OC)c1)CC2 , tested on Wolbachia pipientis.
// result 106.3

// query Please provide the recorded Percent Effect for O=C(NCc1cn2cccnc2n1)C1CC(=O)N(Cc2cccnc2)C1 (stereo not drawn) , tested on Wolbachia pipientis.
// result -8.48

// query Please provide the recorded Percent Effect for Cc1cc(CN2CCN(c3ccc4nncn4n3)C(C)C2)on1 (stereo not drawn) , tested on Wolbachia pipientis.
// result 105.9

---

Percent Effect values, listed per item
test system: Wolbachia pipientis; test: Anti-Wolbachia Cell-Based Screen; format: functional; parameters: scale not given: in the data most compounds retested in dose-response had high values; settings: 5 µM
Out of some 48,000 compounds screened, about 13,000 (27%) showed an effect of 50% or more. The list shows a part of the results.
Record the value in %, omitting the unit from your answer.

> print(dat)
                                   compound      observable  unit.string  value.observed
1         O=C(NCc1ccccc1CO)Nc1ccc2c(c1)CCC2  Percent Effect            %          -12.78
2  CC(=O)N1CCC(C(=O)NCCN2CCCC(C)C2)CC1 (stereo not given)  Percent Effect            %           4.421
3  CCOC(C(=O)N1CCn2c(C)nnc2C1)c1ccccc1 (stereo not given)  Percent Effect            %          -1.753
4  Cc1cccc(CN2CCCC(O)(CNCc3ncccc3C)C2=O)c1 (stereo not given)  Percent Effect            %           4.315
5  CC(=O)N1CCCc2cc(NC(=O)NCCc3cnn(C)c3)ccc21  Percent Effect            %          -10.98
6  CCS(=O)(=O)N1CCc2ccc(NC(=O)NCc3ccccc3)cc21  Percent Effect            %           168.3

// query Entry CS(=O)(=O)c1ccc(NC(=O)NCc2ccc3c(c2)CCC3)cn1 has what Percent Effect?
// result 2.355

// query Entry N#CCCN(Cc1ccccn1)C(=O)Nc1cccc(F)c1 has what Percent Effect?
// result 3.903

// query Entry CC1CCCN(CCNC(=O)c2ccn(-c3ccc(F)cc3)n2)C1 (stereo not given) has what Percent Effect?
// result 89.11

// query Entry CC(C)COC1CC2(CCN(C(=O)Cc3ccccn3)CC2)C1.O=C(O)C(F)(F)F has what Percent Effect?
// result -2.519
